Measured CC50 at 24 h, listed per entry for reference.
# assay: Cytotoxicity against african green monkey Vero cells after 24 hrs
# Format: cell-based
# condition.details: chlorocebus sabaeus
Write the answer as a number in µg/mL, unit excluded.

The examples below pair each entry with its known result.
# molecule, CC50 at 24 h (µg/mL)
data = [
    ("CO/N=C1\\CCN(c2c(F)cc3c(=O)c(C(=O)O)cn(C4CC4)c3c2OC)CC1CN (racemic)", 395),
    ("CO/N=C1\\CCN(c2c(F)cc3c(=O)c(C(=O)O)cn(C4CC4)c3c2OC(F)F)CC1CN (racemic)", 335),
    ("CCO/N=C1\\CCN(c2c(F)cc3c(=O)c(C(=O)O)cn(C4CC4)c3c2OC(F)F)CC1CN (racemic)", 203),
]

Now consider a different molecule.
For the molecule CCO/N=C1\CCN(c2c(F)cc3c(=O)c(C(=O)O)cn(C4CC4)c3c2OC)CC1CN (racemic) , report CC50 at 24 h.
173

The measurements presented in this section are drawn from ChEMBL document CHEMBL1777766.
